Provenance of the data: patent US20250197488A1

Give measured kon for each item. Keep answers brief.
# target or system: T1, human IL-11 (AAH12506.1, Pro22-Leu199) (human, UniProt P20809 22-199)
# T1 construct: The range Pro22-Leu199 counts on AAH12506.1; The Octet runs say only 'human IL-11'; also called hIL-11
# T1 chain: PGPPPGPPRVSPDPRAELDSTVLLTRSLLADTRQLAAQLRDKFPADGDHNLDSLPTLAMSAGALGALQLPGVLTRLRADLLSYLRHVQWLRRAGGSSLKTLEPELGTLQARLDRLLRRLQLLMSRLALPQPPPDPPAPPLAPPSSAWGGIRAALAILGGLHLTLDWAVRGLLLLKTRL
# run description: BLI (Octet), antibody captured, human IL-11 in solution
Respond with a number, then the unit of measure.

Worked cases, kon given:
binder | kon
hz18A10-VHm17 + hz18A10-VLm19 (antibody, V domains shown, Constant regions not restated for this antibody) VH: EVQLVQSGAEVKKPGASVKVSCKASGYTFTHYDMDWVRQAPGQGLEWMGTIYPGEGDTSYNQKFKGRVTMTRDTSTSTVYMELSSLRSEDTAVYYCARGDLYALDYWGQGTLVTVSS VL: DIQMTQSPSSLSASVGDRVTITCKASQSVYRDVAWYQQKPGKAPKLLIYSASNRYTGVPSRFSGSGSGTDFTFTISSLQPEDIATYYCQHDYSSPYTFGQGTKLEIK | 1.16e+06 M⁻¹ s⁻¹
hz18A10-VHm11 + hz18A10-VLm19 (antibody, V domains shown, Constant regions not restated for this antibody) VH: EVQLVQSGAEVKKPGASVKVSCKASGYTFTHYNMDWVRQAPGQGLEWMGTIYPGNGDTSYNQKFKGRVTMTRDTSTSTVYMELSSLRSEDTAVYYCARGDLYALDYWGQGTLVTVSS VL: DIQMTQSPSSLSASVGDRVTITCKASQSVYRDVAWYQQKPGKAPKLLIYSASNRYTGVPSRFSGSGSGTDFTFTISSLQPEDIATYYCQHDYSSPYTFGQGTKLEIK | 862000 M⁻¹ s⁻¹
hz18A10-VHm9 + hz18A10-VLm19 (antibody, V domains shown, Constant regions not restated for this antibody) VH: EVQLVQSGAEVKKPGASVKVSCKASGYTFTTYDMSWVRQAPGQGLEWMGTIYPGNGDTSYNQKFKGRVTMTRDTSTSTVYMELSSLRSEDTAVYYCARGDLYALDYWGQGTLVTVSS VL: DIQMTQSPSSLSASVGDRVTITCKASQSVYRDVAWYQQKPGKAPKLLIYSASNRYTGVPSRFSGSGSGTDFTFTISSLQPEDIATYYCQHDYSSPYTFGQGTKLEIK | 833000 M⁻¹ s⁻¹

Fill in kon for each of the 2 binders listed.
1. hz18A10-VH + hz18A10-VLm16 (antibody, V domains shown, Constant regions not restated for this antibody) VH: EVQLVQSGAEVKKPGASVKVSCKASGYTFTTYNMDWVRQAPGQGLEWMGTIYPGNGDTSYNQKFKGRVTMTRDTSTSTVYMELSSLRSEDTAVYYCARGDLYALDYWGQGTLVTVSS VL: DIQMTQSPSSLSASVGDRVTITCKASQSVSNDVAWYQQKPGKAPKLLIYRASRRYPGVPSRFSGSGSGTDFTFTISSLQPEDIATYYCQHDYSSPYTFGQGTKLEIK
2. hz18A10-VHm7 + hz18A10-VLm19 (antibody, V domains shown, Constant regions not restated for this antibody) VH: EVQLVQSGAEVKKPGASVKVSCKASGYTFTTYDIDWVRQAPGQGLEWMGTIYPGNGDTSYNQKFKGRVTMTRDTSTSTVYMELSSLRSEDTAVYYCARGDLYALDYWGQGTLVTVSS VL: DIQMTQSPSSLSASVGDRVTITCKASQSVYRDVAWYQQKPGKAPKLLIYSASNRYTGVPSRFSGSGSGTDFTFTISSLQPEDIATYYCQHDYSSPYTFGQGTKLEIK

Response:
699000 M⁻¹ s⁻¹
1.08e+06 M⁻¹ s⁻¹
